biological target: VIM-2 metallo-β-lactamase (Class B) (Pseudomonas aeruginosa, UniProt Q9K2N0); construct: made in house; host or cells: E. coli BL21(DE3); assay: β-Lactamase inhibition, VIM-2; type: biochemical; details: nitrocefin 100 μM, 486 nm; 15 min preincubation at 37° C., PBS pH 7.4
assayMetric: IC50

O=C(COC1CCNCC1)N[C@H]1Cc2cccc(C(=O)O)c2OB1O = 0.1 to 1 µM
CNC1CCN(CC(=O)N[C@H]2Cc3cccc(C(=O)O)c3OB2O)CC1O (stereo partly shown) = 1 to 10 µM
NC1CN(CC(=O)N[C@H]2Cc3cccc(C(=O)O)c3OB2O)CCC1O (stereo partly shown) = 10 to 100 µM
CNC1CCN(CC(=O)N[C@H]2Cc3cccc(C(=O)O)c3OB2O)CC1 = 1 to 10 µM

Data request, read-out IC50, for `O=C(CN1CCNCC1=O)N[C@H]1Cc2cccc(C(=O)O)c2OB1O` 1 to 10 µM

Can you handle `O=C(O)c1cccc2c1OB(O)[C@@H](NC(=O)C1CCNCC1)C2` next? 10 to 100 µM

Can you handle `O=C(O)c1cccc2c1OB(O)[C@@H](NC(=O)C1CN(c3ncccn3)C1)C2` next? 1 to 10 µM
